# MEASURED TARGET: [^3H]-(+)-MK-801 binding
# ASSAY OVERVIEW: [3H]-(+)-MK-801 binding
# MEASUREMENT PARAMETERS: read-out: MK-801 Ki; means of 3-5 experiments; Cheng-Prusoff, Kd for MK-801 of […]
pKi: −log10 of the molar value.
ASSAY METRIC: pKi

>>> obs_value("CC1(C)CC(C)(C)CC(C)(N2CCCC2)C1.Cl [MRZ 2/705, hydrochloride]")
5.15

// provenance: patent EP1228052B1
